tested on: MIWI (PIWIL1) piRISC loaded with piRNA #2 (30 nt); test: pre-steady-state target cleavage rate (min^-1); higher = faster piRNA-guided slicing of the target; conditions: guide: piRNA #2 5'p-UUAGGUAACCCAGUAGAUCCAGAGGAAUUC; auxiliary factor: 500 nM mouse GTSF1;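 also: 1 nM active piRISC with 0.1 nM target library at 33 °C single turnover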
The full ranking holds about 5,500 sequences; the median of “pre-steady-state target cleavage rate” is about 0.1, and the highest 2% start at about 0.64. The entries come from a sample that favours the highest values as a whole.
MEASURED_QUANTITY: pre-steady-state target cleavage rate
Give the figure by itself; no unit, no explanation.

CUAUUCCUCUGGCAUCUACUGGGUUACCUAA : 0.399
CUUAAGGUCUGGUUCUAGUGGGUUACCUAA : 0.0776
GAAUUCCUCUCGAUCUACUCGGUUACCUAA : 0.123
CUUAAGCUCUGGAUCUACUGGGUAACCAAA : 0.0234
CUUAAGGUCUGGAUCUACUGGGUUACAUAA : 0.606

**Q:** Please list pre-steady-state target cleavage rate recorded for the sequence "CUUAUCCACUGCAUCUACUGGGUUACCUAA"
**A:** 0.314

**Q:** Item "CAAUUCCUCUGGAUCUGCUGGGUUACCUAA" : provide pre-steady-state target cleavage rate
**A:** 0.641

**Q:** State, in one line, measured pre-steady-state target cleavage rate of "CUUAUCCUCUCGAUCAACUGGGUUACCUAA"
**A:** 0.508

----------
system: MIWI (PIWIL1) piRISC loaded with piRNA #2 (30 nt); assay: pre-steady-state target cleavage rate (min^-1); MIWI and MILI are mouse PIWI proteins and EfPiwi is from a freshwater sponge; tags in brackets are library labels; higher = faster piRNA-guided slicing of the target; conditions: guide: piRNA #2 5'p-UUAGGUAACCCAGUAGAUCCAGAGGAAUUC; auxiliary factor: 500 nM mouse GTSF1;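 also: 1 nM active piRISC with 0.1 nM target library at 33 °C single turnover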
Whole data set: some 5,500 sequences, median “pre-steady-state target cleavage rate” near 0.1, cut for the highest 2% near 0.64. What follows is part of a selection rich in the highest values, with near analogues and random picks from the rest.
Binary call on pre-steady-state target cleavage rate: 1 (yes) from 0.5 upward, 0 (no) beneath that.

Illustrative cases are given below, each with its answer.
GAAUACCUCUGGUUCUACUGGGUUACCUAA : 1 (yes)
GAAUUCCUCUCGAUCUACUGGGUUACCAAA : 1 (yes)
CAUUUCCACUGGAUCUACUGGGUUACCUAA : 0 (no)
CUUUUCCUCUGGAUCUACUGGGUUACGUAA : 1 (yes)
CUAUACCUCUGCAUCUACUGGGUUACCUAA : 0 (no)
CUUUUCCUCUGGAUCUACUGGGUUACCAAA : 0 (no)

**Q:** Form field: pre-steady-state target cleavage rate at least 0.5? Entry: "CAAUACCUCUGGUUCUACUGGGUUACCUAA"
**A:** 1 (yes)

**Q:** Quick check: does "CAAUUCCUCUGGAUCUACUGGGUUUCCUUA" have pre-steady-state target cleavage rate greater than or equal to 0.5?
**A:** 0 (no)

**Q:** In plain terms: is recorded pre-steady-state target cleavage rate at least 0.5 for "CAAUUCCUCUCGAUCUACUGGGUAACCUAA" ?
**A:** 0 (no)

**Q:** Check the entry "CAAUUCCUCUGGAUCUACAGGGUUUCCUAA" : does pre-steady-state target cleavage rate equal or exceed 0.5?
**A:** 0 (no)

**Q:** Please check the record "GAAUUGCUCUGGAUCUACUGGCUUACCUAA" and state if its pre-steady-state target cleavage rate is at or above 0.5.
**A:** 0 (no)
